Recorded T/C for the following molecules
- System: P1534 leukemia ip, CD2F1 mice, survival T/C
- protocol: NCI In Vivo Anticancer Drug Screen. Data for tumor model P1534 Leukemia (intraperitoneal) in CD2F1 (CDF1) mice
- conditions used: endpoint: mean survival time; dose: 4.0 mg/kg/injection; schedule: Q01DX010 (ip); vehicle: saline; higher = longer survival
Inconclusive results and toxic doses are left out.

Completed entries (count: 3):
molecule	readout	result
Nc1nc(F)nc2c1ncn2C1OC(CO)C(O)C1O (centres undefined)	T/C	96 % of control
CN1CC[C@]23c4c5ccc(O)c4O[C@H]2C(=O)CC[C@H]3[C@H]1C5	T/C	100 % of control
CCCCOP(=S)(N1CC1)N1CC1	T/C	115 % of control

# ---- query molecule ----
stdin: Would you mind telling me what T/C value was observed for C[C@H]1/C(=C/C(=O)OCCN(C)C)CC[C@H]2[C@H]1C(=O)C[C@H]1C(C)(C)[C@@H](O)CC[C@]21C ?
stdout: 96 % of control

====

Catalogue of T/C readings, one per entry.
- System: P1534 leukemia ip, CD2F1 mice, survival T/C
- protocol: NCI In Vivo Anticancer Drug Screen. Data for tumor model P1534 Leukemia (intraperitoneal) in CD2F1 (CDF1) mice
- conditions used: endpoint: mean survival time; dose: 16.0 mg/kg/injection; schedule: Q01DX010 (ip); vehicle: saline; higher = longer survival
Inconclusive results and toxic doses are left out.

structure smiles	T/C
c1ccc(CNc2ncnc3[nH]ncc23)cc1	110 % of control

stdin: Quick check: T/C of O=C(Nc1ccc(C2=NCCN2)cc1)c1ccc(C(=O)Nc2ccc(C3=NCCN3)cc2)cc1 ?
stdout: 100 % of control

stdin: // query: O=C(Nc1ccc(C2=NCCN2)cc1)c1cccc(C(=O)Nc2ccc(C3=NCCN3)cc2)c1
stdout: 118 % of control

stdin: Would you kindly repeat that for CCNc1nncs1 ?
stdout: 96 % of control

====

- Test system: P1534 leukemia ip, CD2F1 mice, survival T/C
- protocol: NCI In Vivo Anticancer Drug Screen. Data for tumor model P1534 Leukemia (intraperitoneal) in CD2F1 (CDF1) mice
- conditions used: endpoint: mean survival time; dose: 400.0 mg/kg/injection; schedule: Q01DX010 (ip); vehicle: saline; higher = longer survival
Inconclusive results and toxic doses are left out.
readout: T/C

compound	result
CS(=O)(=O)OCC(O)C(O)COS(C)(=O)=O (stereo unspecified)	107 % of control

Query compound follows.
stdin: Please tell me: T/C of CC1CCC2C(C)C3C(CC4C5CC=C6CC(OC7OC(CO)C(O)C(OC8OC(CO)C(O)C(O)C8O)C7OC7OC(C)C(O)C(O)C7O)CCC6(C)C5CCC43C)N2C1 (stereo unspecified) , system P1534 leukemia ip, CD2F1 mice, survival T/C?
stdout: 92 % of control

====

Reported T/C values are given for each entry in this list.
- Test system: P1534 leukemia ip, CD2F1 mice, survival T/C
- protocol: NCI In Vivo Anticancer Drug Screen. Data for tumor model P1534 Leukemia (intraperitoneal) in CD2F1 (CDF1) mice
- conditions used: endpoint: mean survival time; dose: 12.5 mg/kg/injection; schedule: Q01DX010 (ip); vehicle: saline; higher = longer survival
Inconclusive results and toxic doses are left out.

compound	result
O=C(NCCCCC(NC(=O)OCc1ccccc1)C(=O)NCCCCCCNCCCCCCNC(=O)C(CCCCNC(=O)OCc1ccccc1)NC(=O)OCc1ccccc1)OCc1ccccc1 (centres undefined)	107 % of control

stdin: Give T/C (P1534 leukemia ip, CD2F1 mice, survival T/C) of the following compound: O=C(C[C@H]1CCC[C@H](CC(=O)c2ccccc2)N1)c1ccccc1
stdout: 92 % of control

stdin: Okay, and C1CCNCC1 ?
stdout: 96 % of control

stdin: Next compound: C/C=C1\CNC2Cc3c([nH]c4ccccc34)C(=O)CC1C2C(=O)OC (centres undefined)
stdout: 93 % of control

stdin: Can you check OCCN1CCC(CCCC2CCNCC2)CC1 next?
stdout: 96 % of control
